# reported melting point; entries follow

| compound | melting point |
| --- | --- |
| O=C(O)c1cccc(OCCCc2cc(-c3ccc(C(F)(F)F)cc3)no2)c1 | 133 to 134 °C |
| COc1cc(C(O)CN)cc(OC)c1OC (stereo not given) | 141 °C |
| CCOC(=O)CCc1sc(N)nc1-c1ccc(Cl)cc1 | 160 to 161 °C |
| COc1ccc(CNC(=O)c2cn3c(=O)n(Cc4ccc(C(=O)O)cc4)c(=O)c(C)c3s2)cc1 | > 210 °C |
| CCCn1c(COC)nc2c(N)nc3ccc(OCCCOC(=O)N4CCOCC4)cc3c21 | 173 to 174 °C |
| CCOCC(=O)c1nc2c(Cl)cc(F)c(-n3c(=O)cc(C(F)(F)F)n(C)c3=O)c2o1 | 56 to 58 °C |
| CC(=O)OC1CCC2(C)C(=CC=C3C2CCC2(C)C(C(C)CC#CC(C)(C)OC(C)=O)=CCC32)C1 (stereo not given) | 98 to 101 °C |
| CC(=O)OC1(C(=O)CCl)CCC2C3CCC4=CC(=O)CCC4(C)C3CCC21C (stereo not given) | 219 to 221 °C |
| CCc1ccc(-c2c(Cl)c(CN3C(=O)CCC3=O)nc3sc4c(c23)CCN(C(=O)OCc2ccccc2)C4)cc1 | 170 to 171 °C |
| CC(C)(C)n1nc2c(S)ncnc2c1O | > 300 °C |
| CCOC(=O)C1(CC(N)=O)C(=O)N2CCOc3cc(Cl)cc1c32 (stereo not given) | 227 to 229 °C |
| N#CCN(C1CC1)S(=O)(=O)Cc1cccc(C(F)(F)F)c1 | 70.1 to 71 °C |
| CCOC(=O)C(=CNC1CC1)C(=O)c1cc(F)c(-n2cccc2)cc1F | 90 to 92 °C |
| COc1ccc(-c2nsc(C(=O)O)c2C(=O)O)cc1OC | 190 to 192 °C |
| COc1cc2ncc(C#N)c(Nc3ccc(Cl)c4ccccc34)c2cc1OC | > 250 °C |
| N#CN=C(Nc1cccnc1)NC(NC(=O)c1ccccc1)C(Cl)(Cl)Cl (stereo not given) | 133 to 135 °C |
| CCn1nc(C)c(NC(N)=S)c1C | 248 °C |
| COC(=O)/C(O)=C1\CCc2cc(OC)ccc2C1=O | 77.3 to 77.8 °C |
| Cc1ccc(-c2nc(NCCN3CCOCC3)cc(Sc3ccc(Cl)cc3)n2)cc1 | 141 to 142 °C |
| CC(C1CC1)C(O)(Cn1nc[nH]c1=S)c1ccc(Cl)cc1 (stereo not given) | 137 °C |
| S=C(NCCCN1CCCC1)NCCCN(Cc1ccc(Cl)c(Cl)c1)c1ccc(Br)cn1 | 122 to 124 °C |
| Clc1nc2c(c(N[C@@H]3CCC[C@H]3OCc3ccccc3)n1)SCC2 | 157 to 158 °C |
| Cc1ccc(C(=O)N(C(C)C)C(C)C)c(F)c1C1=NC(C)(C(C)C)C(=O)N1 (stereo not given) | 205 to 210 °C |
| Clc1ccc2c(c1)oc1cc(OCCCBr)ccc12 | 83 to 85 °C |
| CON=C(C)CN(C(=O)c1ccco1)c1c(C)cccc1C | 108 to 109 °C |
| CC(C)(C)OC(=O)[C@H]1C[C@@H](S(=O)(=O)c2ccccc2F)[C@@H](c2ccccc2F)N1 (racemic) | 202 °C |
| COc1cc(C2=C(c3c[nH]c4ccccc34)C(=O)NC2=O)cc(OC)c1OC | 227 °C |
| COc1cc(Cl)c([N+](=O)[O-])cc1C(=O)NCCC(=O)O | 170 to 172 °C |
| CN(C)c1nc2sc3c(NCc4cccnc4)ncnc3c2c2c1CCC2(C)C | 237 to 238 °C |
| CN(C)c1ccc(C(=O)CCCN2CCC(=C(c3ccccc3)c3ccccc3)CC2)cc1 | 110 to 112 °C |
| COc1ccccc1CNc1nccc2ccccc12 | 111 to 113 °C |
| Oc1c(Br)cc(-c2c3ccccc3c(I)c3sc4ccccc4c23)cc1Br | 221 to 222 °C |
| C=CCc1c(O)c(Cl)cc(F)c1N1C(=O)C2=C(CCCC2)C1=O | 109 to 111 °C |
| COc1cc(C(=N)N)ccc1OCc1ccc(CN2C(=O)c3ccccc3C2=O)cc1 | 228 to 230 °C |
| C=CC12CCc3cc(O)ccc3C1=CCC1(C)C(O)CCC21 (stereo not given) | 149 to 150 °C |
| CSC(=NC(=O)Cc1ccccc1)N(C)N=Cc1ccccc1 | 147 to 148 °C |
| CCCC(=O)NC(=O)C(c1ccccc1)c1ccccc1 | 205 °C |
| CCOC(=O)NC(C)C(=O)c1ccc(O)c(Cl)c1 (stereo not given) | 106 to 108 °C |
| C=CCNc1nc(NCC)c2scc(C)c2n1 | 96 to 97 °C |
| Cc1nnc2n1-c1sc(CCc3ccccc3)cc1C(c1ccccc1Cl)=NC2 | 106 to 108 °C |
